Where do these numbers come from? They come from the supplement of paper PMC9732359.

- procedure-summary: protein stability index of a GFP-peptide fusion (yeast GPS) (PSI 1-4); higher = more stable; sorted into four equal gates, so the index is relative within each strain
- measurement-setup: doa10∆
# cutoff 3 applies to protein stability index; >= gives Yes, < gives No

Consider the worked cases shown below.
- residue-codes: "ESEQELSLHTGFIENCN [MTR3]"
  assigned-class: "No"
- residue-codes: "EKACQVLKYMLLSKIML [RPN6]"
  assigned-class: "No"
- residue-codes: "IFDGNYGESDIHFREHQ [YMR129W/POM152]"
  assigned-class: "Yes"
- residue-codes: "FKDRFKDEPVQNDILQE [FAS2]"
  assigned-class: "Yes"
- residue-codes: "GGALDNPFEDDMDGVDF [BRN1]"
  assigned-class: "Yes"
- residue-codes: "TSNWEIYKPLLFEIVSN [SRB8]"
  assigned-class: "No"

hey, is protein stability index for this one >= 3? EFIYLTKVLQFAAKQRQ [SNF2] No
